Value source: PubChem BioAssay AID2025

- Test Name: compounds altering RPL19A-GFP fluorescence, TOR branch – cell-based, S. cerevisiae, multiplex flow cytometry, MLPCN, primary screen (AID 2025);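 note: median channel GFP fluorescence of the barcoded RPL19A-GFP strain; ratio of sample median GFP to plate DMSO average so 100% = DMSO; lower means less RPL19A-GFP as with rapamycin TOR inhibition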
- Condition Context: S. cerevisiae RPL19A-GFP strain, 3 h, at 10 µM
The whole screen tested about 330,000 compounds, of which about 980 (0.3%) were called active.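 Rule for the calls: active = percent response vs DMSO below 50%; inconclusive = fewer than 70 events counted for the yeast strain; inactive = the rest.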 The list comes from a sample in which actives are over-represented; it also holds close analogues and randomly drawn compounds.
Assign a class; possible classes are active, inactive

Illustrative cases are given below, each with its answer.
Molecule	Group
O=C(Cc1c(F)cccc1Cl)Nc1ccc(-n2cnnn2)cc1	inactive
O=C(COC(=O)CNC(=O)C1CCCCC1)Nc1cccc(F)c1	inactive
COCCN(C(=O)CSCc1ccc(C)cc1)c1c(N)n(CC(C)C)c(=O)[nH]c1=O	inactive
Cc1noc(C)c1-c1ccc2ncnc(NC(C)c3ccco3)c2c1 (stereo not given)	inactive
CCCc1ccc(-c2c(C)sc(NC(=O)c3ccnn3C)c2C#N)cc1	inactive
CCOC(=O)C1CCN(C(=O)CN2C(=O)c3cccnc3Oc3ccc(C)cc32)CC1	inactive
CN(CC(=O)Nc1ccccc1Cl)C(=O)c1ccccc1SCC(=O)N1CCCC1	inactive
CCCOc1ccc(-c2c(C(=O)N/N=C/c3ccco3)nnn2-c2nonc2N)cc1	inactive
Cc1cc(NC(=O)COc2ccc([N+](=O)[O-])cc2)no1	inactive

Please turn your attention to the following entry.
Please let me know the test result on file for Cc1cc(C)cc(N(CC(=O)NC2CCCC2)C(=O)CCC(=O)Nc2cc(C)on2)c1 . active

---

- Test Name: compounds altering RPL19A-GFP fluorescence, TOR branch – cell-based, S. cerevisiae, multiplex flow cytometry, MLPCN, primary screen (AID 2025);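 note: median channel GFP fluorescence of the barcoded RPL19A-GFP strain; ratio of sample median GFP to plate DMSO average so 100% = DMSO; lower means less RPL19A-GFP as with rapamycin TOR inhibition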
- Condition Context: S. cerevisiae RPL19A-GFP strain, 3 h, at 10 µM
The campaign covered roughly 330,000 compounds. About 980 (0.3%) were called active.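 How the source made its calls: active means percent response vs DMSO below 50%; inconclusive means fewer than 70 events counted for the yeast strain; inactive means the rest.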 The sample as a whole holds a higher share of actives than the screen did.
Hello, when you answer, please use one of the following outcomes: active, inactive

Returns: the outcome recorded for O=C(CC(NS(=O)(=O)c1ccc(Cl)cc1)c1ccco1)NC1CCCC1 (configuration not stated) in this assay. inactive

---

- Test Name: compounds altering RPL19A-GFP fluorescence, TOR branch – cell-based, S. cerevisiae, multiplex flow cytometry, MLPCN, primary screen (AID 2025);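 note: median channel GFP fluorescence of the barcoded RPL19A-GFP strain; ratio of sample median GFP to plate DMSO average so 100% = DMSO; lower means less RPL19A-GFP as with rapamycin TOR inhibition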
- Condition Context: S. cerevisiae RPL19A-GFP strain, 3 h, at 10 µM, hits give low values
The whole screen tested about 330,000 compounds, of which about 980 (0.3%) were called active. The entries come from a sample that favours actives as a whole.
Readout Name: percent response vs DMSO

Solved entries (count: 3):
Molecule	Measured Value
CN(NC(=O)C1CC(=O)N(c2ccccc2)C1)C1=NS(=O)(=O)c2ccccc21 (configuration not stated)	102% (inactive)
CC(=O)c1ccc(N2CCN(C(=O)CCNC(=O)Cn3ccc4ccccc4c3=O)CC2)cc1	104% (inactive)
CCOc1cc(N2CCOCC2)c(OCC)cc1NC(=O)c1cc(C)nc2ccccc12	101% (inactive)

Sample CN(C)C(=O)c1cc(Br)ccc1Cl — what was its percent response vs DMSO? 95.1% (inactive)

Need percent response vs DMSO, item O=C(Cc1ccccc1)NNS(=O)(=O)c1ccc([N+](=O)[O-])cc1 97.4% (inactive)

---

- Test Name: compounds altering RPL19A-GFP fluorescence, TOR branch – cell-based, S. cerevisiae, multiplex flow cytometry, MLPCN, primary screen (AID 2025);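 note: median channel GFP fluorescence of the barcoded RPL19A-GFP strain; ratio of sample median GFP to plate DMSO average so 100% = DMSO; lower means less RPL19A-GFP as with rapamycin TOR inhibition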
- Condition Context: S. cerevisiae RPL19A-GFP strain, 3 h, at 10 µM
In all, about 330,000 compounds went through this assay and about 980 (0.3%) were called active.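 How the source made its calls: active means percent response vs DMSO below 50%; inconclusive means fewer than 70 events counted for the yeast strain; inactive means the rest.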 The full list was thinned out, with actives kept by preference.
Classes to choose from: active, inactive

Use the examples below as a reference point.
Compound	Group
Cc1cccc(NC(=S)NCc2ccc3[nH]c4c(c3c2)CCCC4)c1	inactive
O=C1C=CC(=O)N1c1ccc(N2CCCCC2)cc1	inactive
CN1CCN(C2Cc3ccc(Cl)cc3Sc3ccc(F)cc32)CC1 (stereo not given)	inactive

What is the recorded call for this compound in the test? O=C(O)c1ccc(COc2c(F)c(F)cc(F)c2F)o1 inactive
